- Experiment Description: Plasma activity levels of heparin (anti-Xa) and PPACK (antithrombin) during dialyzer study
- Format: in vivo, baboon
- Protocol Conditions: plasma, 100 nmol/kg per min, Plasma PPACK, Predialyzer, 30 min

Molecule | level at 0.5 h / ng/mL
N=C(N)NCCC[C@H](NC(=O)[C@@H]1CCCN1C(=O)[C@H](N)Cc1ccccc1)C(=O)CCl [PPACK] | 3050

###

- Experiment Description: Plasma activity levels of heparin (anti-Xa) and PPACK (antithrombin) during dialyzer study
- Format: in vivo, baboon
- Protocol Conditions: plasma, 100 nmol/kg per min, Plasma PPACK, Postdialyzer, 60 min
Observable: level at 1 h (ng/mL)

Molecule | Observable | Numeric Readout
N=C(N)NCCC[C@H](NC(=O)[C@@H]1CCCN1C(=O)[C@H](N)Cc1ccccc1)C(=O)CCl | level at 1 h | 4100

###

- Experiment Description: Plasma activity levels of heparin (anti-Xa) and PPACK (antithrombin) during dialyzer study
- Type: in vivo, baboon
- Protocol Conditions: plasma, 100 nmol/kg per min, Plasma PPACK, Postdialyzer, 30 min

Compound | level at 0.5 h (ng/mL)
N=C(N)NCCC[C@H](NC(=O)[C@@H]1CCCN1C(=O)[C@H](N)Cc1ccccc1)C(=O)CCl [PPACK] | 3900

###

- Experiment Description: Plasma activity levels of heparin (anti-Xa) and PPACK (antithrombin) during dialyzer study
- Assay type: in vivo, baboon
- Protocol Conditions: plasma, 100 nmol/kg per min, Plasma PPACK, Predialyzer, 60 min
Observable: level at 1 h (ng/mL)

Molecule | Numeric Readout
N=C(N)NCCC[C@H](NC(=O)[C@@H]1CCCN1C(=O)[C@H](N)Cc1ccccc1)C(=O)CCl | 3650

###

- Experiment Description: Plasma levels of PPACK (antithrombin activity) in carotid endarterectomy study
- Type: in vivo, baboon
- Protocol Conditions: iv, 100 nmol/kg/min, 90 min after infusion
Observable: level at 1.5 h (ng/mL)

Compound | Numeric Readout
N=C(N)NCCC[C@H](NC(=O)[C@@H]1CCCN1C(=O)[C@H](N)Cc1ccccc1)C(=O)CCl [PPACK] | 1120

###

- Experiment Description: Plasma activity levels of heparin (anti-Xa) and PPACK (antithrombin) during dialyzer study
- Type: in vivo, baboon
- Protocol Conditions: plasma, 100 nmol/kg per min, Plasma PPACK, Systemic, 60 min

Molecule | level at 1 h / ng/mL
N=C(N)NCCC[C@H](NC(=O)[C@@H]1CCCN1C(=O)[C@H](N)Cc1ccccc1)C(=O)CCl | 1600
